Reported Tumor/lung ratio values for a set of molecules
# Test system: S180 tumor
# experiment: Biodistribution in tumor-bearing mice
# Format: in vivo
# study_conditions: 120 min p.i., mean ± SD
Answer with a bare number; do not write a unit.

Some molecules with known Tumor/lung ratio results, for comparison:
[[record]]
molecule = "O=C(NC1C(O)OC(CO)C(O)C1O)c1cccc([N+]#[C][99Tc+]([C]#[N+]c2cccc(C(=O)NC3C(O)OC(CO)C(O)C3O)c2)([C]#[N+]c2cccc(C(=O)NC3C(O)OC(CO)C(O)C3O)c2)([C]#[N+]c2cccc(C(=O)NC3C(O)OC(CO)C(O)C3O)c2)([C]#[N+]c2cccc(C(=O)NC3C(O)OC(CO)C(O)C3O)c2)[C]#[N+]c2cccc(C(=O)NC3C(O)OC(CO)C(O)C3O)c2)c1 (stereo not shown) [^99mTc-3-CNBzDG]"
value_measured = 2.01

[[record]]
molecule = "O=C(NC1C(O)OC(CO)C(O)C1O)c1ccc([N+]#[C][99Tc+]([C]#[N+]c2ccc(C(=O)NC3C(O)OC(CO)C(O)C3O)cc2)([C]#[N+]c2ccc(C(=O)NC3C(O)OC(CO)C(O)C3O)cc2)([C]#[N+]c2ccc(C(=O)NC3C(O)OC(CO)C(O)C3O)cc2)([C]#[N+]c2ccc(C(=O)NC3C(O)OC(CO)C(O)C3O)cc2)[C]#[N+]c2ccc(C(=O)NC3C(O)OC(CO)C(O)C3O)cc2)cc1 (stereo not shown) [^99mTc-4-CNBzDG]"
value_measured = 0.49

[[record]]
molecule = "O=C(NC1C(O)OC(CO)C(O)C1O)c1ccc(CC[N+]#[C][99Tc+]([C]#[N+]CCc2ccc(C(=O)NC3C(O)OC(CO)C(O)C3O)cc2)([C]#[N+]CCc2ccc(C(=O)NC3C(O)OC(CO)C(O)C3O)cc2)([C]#[N+]CCc2ccc(C(=O)NC3C(O)OC(CO)C(O)C3O)cc2)([C]#[N+]CCc2ccc(C(=O)NC3C(O)OC(CO)C(O)C3O)cc2)[C]#[N+]CCc2ccc(C(=O)NC3C(O)OC(CO)C(O)C3O)cc2)cc1 (stereo not shown) [^99mTc-4-CNPeDG]"
value_measured = 1.81


Now look at this entry.
Sample O=C(NC1C(O)OC(CO)C(O)C1O)c1cccc(C[N+]#[C][99Tc+]([C]#[N+]Cc2cccc(C(=O)NC3C(O)OC(CO)C(O)C3O)c2)([C]#[N+]Cc2cccc(C(=O)NC3C(O)OC(CO)C(O)C3O)c2)([C]#[N+]Cc2cccc(C(=O)NC3C(O)OC(CO)C(O)C3O)c2)([C]#[N+]Cc2cccc(C(=O)NC3C(O)OC(CO)C(O)C3O)c2)[C]#[N+]Cc2cccc(C(=O)NC3C(O)OC(CO)C(O)C3O)c2)c1 (stereo not shown) [^99mTc-3-CNPEDG] ; Tumor/lung ratio observed: 3.26

---

Reported Tumor/blood ratio values for a set of compounds
# Test system: S180 tumor
# experiment: Biodistribution in tumor-bearing mice
# Type: in vivo
# study_conditions: 120 min, i.v., mice bearing S180 tumor, mean ± SD
Answer with a bare number; do not write a unit.

Some compounds with known Tumor/blood ratio results, for comparison:
[[record]]
compound = "O=C(NC1C(O)OC(CO)C(O)C1O)c1ccc(CC[N+]#[C][99Tc+]([C]#[N+]CCc2ccc(C(=O)NC3C(O)OC(CO)C(O)C3O)cc2)([C]#[N+]CCc2ccc(C(=O)NC3C(O)OC(CO)C(O)C3O)cc2)([C]#[N+]CCc2ccc(C(=O)NC3C(O)OC(CO)C(O)C3O)cc2)([C]#[N+]CCc2ccc(C(=O)NC3C(O)OC(CO)C(O)C3O)cc2)[C]#[N+]CCc2ccc(C(=O)NC3C(O)OC(CO)C(O)C3O)cc2)cc1 (stereo not drawn) [^99mTc-4-CNPeDG]"
value_measured = 10.17

[[record]]
compound = "O=C(NC1C(O)OC(CO)C(O)C1O)c1ccc(C[N+]#[C][99Tc+]([C]#[N+]Cc2ccc(C(=O)NC3C(O)OC(CO)C(O)C3O)cc2)([C]#[N+]Cc2ccc(C(=O)NC3C(O)OC(CO)C(O)C3O)cc2)([C]#[N+]Cc2ccc(C(=O)NC3C(O)OC(CO)C(O)C3O)cc2)([C]#[N+]Cc2ccc(C(=O)NC3C(O)OC(CO)C(O)C3O)cc2)[C]#[N+]Cc2ccc(C(=O)NC3C(O)OC(CO)C(O)C3O)cc2)cc1 (stereo not drawn) [^99mTc-CNPEDG, reference compound]"
value_measured = 3.29

[[record]]
compound = "O=C(NC1C(O)OC(CO)C(O)C1O)c1cccc([N+]#[C][99Tc+]([C]#[N+]c2cccc(C(=O)NC3C(O)OC(CO)C(O)C3O)c2)([C]#[N+]c2cccc(C(=O)NC3C(O)OC(CO)C(O)C3O)c2)([C]#[N+]c2cccc(C(=O)NC3C(O)OC(CO)C(O)C3O)c2)([C]#[N+]c2cccc(C(=O)NC3C(O)OC(CO)C(O)C3O)c2)[C]#[N+]c2cccc(C(=O)NC3C(O)OC(CO)C(O)C3O)c2)c1 (stereo not drawn) [^99mTc-3-CNBzDG]"
value_measured = 5.39

[[record]]
compound = "O=C(Cc1ccc(C[N+]#[C][99Tc+]([C]#[N+]Cc2ccc(CC(=O)NC3C(O)OC(CO)C(O)C3O)cc2)([C]#[N+]Cc2ccc(CC(=O)NC3C(O)OC(CO)C(O)C3O)cc2)([C]#[N+]Cc2ccc(CC(=O)NC3C(O)OC(CO)C(O)C3O)cc2)([C]#[N+]Cc2ccc(CC(=O)NC3C(O)OC(CO)C(O)C3O)cc2)[C]#[N+]Cc2ccc(CC(=O)NC3C(O)OC(CO)C(O)C3O)cc2)cc1)NC1C(O)OC(CO)C(O)C1O (stereo not drawn) [^99mTc-4-CNMBDG]"
value_measured = 10.06

[[record]]
compound = "O=C(NC1C(O)OC(CO)C(O)C1O)c1cccc(C[N+]#[C][99Tc+]([C]#[N+]Cc2cccc(C(=O)NC3C(O)OC(CO)C(O)C3O)c2)([C]#[N+]Cc2cccc(C(=O)NC3C(O)OC(CO)C(O)C3O)c2)([C]#[N+]Cc2cccc(C(=O)NC3C(O)OC(CO)C(O)C3O)c2)([C]#[N+]Cc2cccc(C(=O)NC3C(O)OC(CO)C(O)C3O)c2)[C]#[N+]Cc2cccc(C(=O)NC3C(O)OC(CO)C(O)C3O)c2)c1 (stereo not drawn) [^99mTc-3-CNPEDG]"
value_measured = 6.40


Now look at this entry.
So the reported Tumor/blood ratio for O=C(NC1C(O)OC(CO)C(O)C1O)c1ccc([N+]#[C][99Tc+]([C]#[N+]c2ccc(C(=O)NC3C(O)OC(CO)C(O)C3O)cc2)([C]#[N+]c2ccc(C(=O)NC3C(O)OC(CO)C(O)C3O)cc2)([C]#[N+]c2ccc(C(=O)NC3C(O)OC(CO)C(O)C3O)cc2)([C]#[N+]c2ccc(C(=O)NC3C(O)OC(CO)C(O)C3O)cc2)[C]#[N+]c2ccc(C(=O)NC3C(O)OC(CO)C(O)C3O)cc2)cc1 (stereo not drawn) [^99mTc-4-CNBzDG] , on S180 tumor, turned out to be 0.47

---

# Tested on: S180 tumor
# experiment: Biodistribution in tumor-bearing mice
# Type: in vivo
# study_conditions: 120 min, i.v., mice bearing S180 tumor, mean ± SD
readout_kind: Tumor

Some compounds with known Tumor results, for comparison:
[[record]]
compound = "O=C(NC1C(O)OC(CO)C(O)C1O)c1cccc([N+]#[C][99Tc+]([C]#[N+]c2cccc(C(=O)NC3C(O)OC(CO)C(O)C3O)c2)([C]#[N+]c2cccc(C(=O)NC3C(O)OC(CO)C(O)C3O)c2)([C]#[N+]c2cccc(C(=O)NC3C(O)OC(CO)C(O)C3O)c2)([C]#[N+]c2cccc(C(=O)NC3C(O)OC(CO)C(O)C3O)c2)[C]#[N+]c2cccc(C(=O)NC3C(O)OC(CO)C(O)C3O)c2)c1 (stereo not shown) [^99mTc-3-CNBzDG]"
experimental_target = "S180 tumor"
value_measured = "1.47 ± 0.22 % ID/g"

[[record]]
compound = "O=C(NC1C(O)OC(CO)C(O)C1O)c1ccc(CC[N+]#[C][99Tc+]([C]#[N+]CCc2ccc(C(=O)NC3C(O)OC(CO)C(O)C3O)cc2)([C]#[N+]CCc2ccc(C(=O)NC3C(O)OC(CO)C(O)C3O)cc2)([C]#[N+]CCc2ccc(C(=O)NC3C(O)OC(CO)C(O)C3O)cc2)([C]#[N+]CCc2ccc(C(=O)NC3C(O)OC(CO)C(O)C3O)cc2)[C]#[N+]CCc2ccc(C(=O)NC3C(O)OC(CO)C(O)C3O)cc2)cc1 (stereo not shown) [^99mTc-4-CNPeDG]"
experimental_target = "S180 tumor"
value_measured = "0.95 ± 0.21 % ID/g"


Sample O=C(NC1C(O)OC(CO)C(O)C1O)c1ccc(C[N+]#[C][99Tc+]([C]#[N+]Cc2ccc(C(=O)NC3C(O)OC(CO)C(O)C3O)cc2)([C]#[N+]Cc2ccc(C(=O)NC3C(O)OC(CO)C(O)C3O)cc2)([C]#[N+]Cc2ccc(C(=O)NC3C(O)OC(CO)C(O)C3O)cc2)([C]#[N+]Cc2ccc(C(=O)NC3C(O)OC(CO)C(O)C3O)cc2)[C]#[N+]Cc2ccc(C(=O)NC3C(O)OC(CO)C(O)C3O)cc2)cc1 (stereo not shown) [^99mTc-CNPEDG, reference compound] ; Tumor observed: 4.25 ± 0.56 % ID/g

Sample O=C(NC1C(O)OC(CO)C(O)C1O)c1cccc(C[N+]#[C][99Tc+]([C]#[N+]Cc2cccc(C(=O)NC3C(O)OC(CO)C(O)C3O)c2)([C]#[N+]Cc2cccc(C(=O)NC3C(O)OC(CO)C(O)C3O)c2)([C]#[N+]Cc2cccc(C(=O)NC3C(O)OC(CO)C(O)C3O)c2)([C]#[N+]Cc2cccc(C(=O)NC3C(O)OC(CO)C(O)C3O)c2)[C]#[N+]Cc2cccc(C(=O)NC3C(O)OC(CO)C(O)C3O)c2)c1 (stereo not shown) [^99mTc-3-CNPEDG] ; Tumor observed: 1.35 ± 0.20 % ID/g
